Tested on: L1210 leukemia ip in BDF1 mice, survival T/C
METHOD: NCI In Vivo Anticancer Drug Screen. Data for tumor model L1210 Leukemia (intraperitoneal) in B6D2F1 (BDF1) mice
TEST_CONDITIONS: endpoint: mean survival time; dose: 100.0 mg/kg/injection; schedule: Q01DX001 (ip); vehicle: carboxymethylcellulose (CMC); higher = longer survival
Toxic doses and inconclusive results are not listed.
MEASURE: T/C

**Query** Report T/C for `COc1cccc(/C=C2\CCNC2=O)c1OC` please.
**Result** 102 % of control

**Query** Same for `CC(C)(C)CC(C)(C)c1ccc(OCCOCCSC(=N)N)cc1`
**Result** 98 % of control

**Query** Same for `Nc1nc(Cl)c(C=O)c(Cl)n1`
**Result** 94 % of control

**Query** Same for COCC(C)CNC(=S)Nc1ccccc1 (stereo not drawn)
**Result** 103 % of control

**Query** Same for `CCOC(=O)c1cccc2cccc(C(=O)OCC)c12`
**Result** 101 % of control

**Query** Same for `CCCCC(=O)N(CC(C)C)CC(C)C`
**Result** 97 % of control

**Query** Same for CCCCCCCCCC(=O)N1CCCCC1C (stereo not drawn)
**Result** 93 % of control

**Query** Same for `Cc1cc(/C=C\c2ccc3ccccc3[n+]2C)c(O)c2ncccc12`
**Result** 110 % of control

**Query** Same for CC1(C)CCCC(OC(=O)c2ccc([N+](=O)[O-])cc2)C1 (stereo not drawn)
**Result** 93 % of control

**Query** Same for `COc1cc(OC)cc(C(=O)NCCCl)c1`
**Result** 110 % of control

**Query** Same for `CC(=O)Nc1ccc2c(c1)Cc1c(F)ccc(F)c1-2`
**Result** 91 % of control

**Query** Same for `Oc1ccc(Br)cc1C=Nc1cnc2ccccc2c1`
**Result** 90 % of control

**Query** Same for `Clc1ccc(/C=N/N2CCN(/N=C/c3ccc(Cl)cc3)CC2)cc1`
**Result** 96 % of control

###

Test system: L1210 leukemia ip in BDF1 mice, survival T/C
METHOD: NCI In Vivo Anticancer Drug Screen. Data for tumor model L1210 Leukemia (intraperitoneal) in B6D2F1 (BDF1) mice
TEST_CONDITIONS: endpoint: mean survival time; dose: 100.0 mg/kg/injection; schedule: Q01DX009 (ip); vehicle: Klucel (hydroxypropylcellulose) (HPC); higher = longer survival
Toxic doses and inconclusive results are not listed.
For each of the compounds below, state its T/C.

**Query** Report T/C for `Cc1ccc(N=Nc2ccc(C)cc2NC(=O)Nc2ccccc2C(F)(F)F)cc1` please.
**Result** 92 % of control

**Query** Same for O=[N+]([O-])c1ccc(CC(O)c2ccccc2)cc1 (configuration not stated)
**Result** 111 % of control

**Query** Same for `O=C(O)c1ccc(Br)c([N+](=O)[O-])c1`
**Result** 95 % of control

**Query** Same for `Cc1ccc2c(c1)C(=O)CCS2`
**Result** 107 % of control

**Query** Same for `c1ccc2c(c1)-c1cccc3cccc-2c13`
**Result** 95 % of control

**Query** Same for Cc1ccc(C)c(NC(=O)N2CCCCC2C)c1 (configuration not stated)
**Result** 101 % of control

**Query** Same for `S=C(C/C=C/CC(=S)SN(c1ccccc1)c1ccccc1)SN(c1ccccc1)c1ccccc1`
**Result** 91 % of control

**Query** Same for `COc1c(NC(=O)c2cccc(C(=O)Nc3cccc([N+](=O)[O-])c3OC)c2)cccc1[N+](=O)[O-]`
**Result** 96 % of control

**Query** Same for `COc1ccc(OCCO)cc1`
**Result** 95 % of control

**Query** Same for O=C1CC2c3ccccc3C1C1C(=O)OC(=O)C21 (configuration not stated)
**Result** 112 % of control

**Query** Same for `Cc1ccccc1NC(=O)NCCc1ccccc1`
**Result** 93 % of control

**Query** Same for `Nc1cc(S(=O)(=O)F)cc(Cl)c1O`
**Result** 105 % of control

###

For each of the compounds below, state its T/C.
System: L1210 leukemia ip in BDF1 mice, survival T/C
METHOD: NCI In Vivo Anticancer Drug Screen. Data for tumor model L1210 Leukemia (intraperitoneal) in B6D2F1 (BDF1) mice
TEST_CONDITIONS: endpoint: mean survival time; dose: 100.0 mg/kg/injection; schedule: Q01DX009 (ip); vehicle: Klucel (hydroxypropylcellulose) (HPC); higher = longer survival
Toxic doses and inconclusive results are not listed.

**Query** Report T/C for `Cc1cc(C)c(CC(C)(CO)CO)c(C)c1CC(C)(CO)CO` please.
**Result** 107 % of control

**Query** Same for `COc1cc(C(=O)O)c(O)c(OC)c1OC`
**Result** 96 % of control

**Query** Same for CCCCSCC(N)C(=O)O (configuration not stated)
**Result** 96 % of control

**Query** Same for `COc1cc(Cl)ccc1NC(=O)Oc1ccc2c(C)cc(=O)oc2c1`
**Result** 100 % of control

**Query** Same for `COc1cc(/C=N/O)cc(I)c1O`
**Result** 104 % of control

**Query** Same for `CCOc1ccc(/C=C2\N=C(c3ccc([N+](=O)[O-])cc3)OC2=O)cc1`
**Result** 97 % of control

**Query** Same for COC(=O)Nc1cccc2c1C=CC(C#N)N2C(=O)OC (configuration not stated)
**Result** 93 % of control

**Query** Same for COC(=O)C(Br)C(OC)c1ccccc1 (configuration not stated)
**Result** 96 % of control

**Query** Same for `CCN(CC)/N=N/c1nc[nH]c1C(N)=O`
**Result** 114 % of control

**Query** Same for `COc1ccc(CCn2ccc(C(=O)O)cc2=O)cc1OC`
**Result** 89 % of control

**Query** Same for `COc1c(NC(=O)CC(C)=O)cccc1NC(=O)CC(C)=O`
**Result** 108 % of control

**Query** Same for `N=C(Oc1c(Cl)c(Cl)c(Cl)c(Cl)c1Cl)Oc1c(Cl)c(Cl)c(Cl)c(Cl)c1Cl`
**Result** 100 % of control

###

Tested on: L1210 leukemia ip in BDF1 mice, survival T/C
METHOD: NCI In Vivo Anticancer Drug Screen. Data for tumor model L1210 Leukemia (intraperitoneal) in B6D2F1 (BDF1) mice
TEST_CONDITIONS: endpoint: mean survival time; dose: 25.0 mg/kg/injection; schedule: Q04DX002 (ip); vehicle: saline; higher = longer survival
Toxic doses and inconclusive results are not listed.
For each of the compounds below, state its T/C.

**Query** Report T/C for `O=C(Nc1ccc(C(=O)O)cc1)Nc1cccc(Cl)c1` please.
**Result** 92 % of control

**Query** Same for `Cc1nnc2nc3c(nn12)c1ccccc1n3C`
**Result** 96 % of control

**Query** Same for CC(N)C(=O)NC(C(=O)O)C(C)O (stereo not given)
**Result** 98 % of control

**Query** Same for `CSC(SC)=C(C#N)C#N`
**Result** 101 % of control

**Query** Same for CC(Cl)C(=O)NC(C)C(=O)O (stereo not given)
**Result** 111 % of control

###

For each of the compounds below, state its T/C.
Test system: L1210 leukemia ip in BDF1 mice, survival T/C
METHOD: NCI In Vivo Anticancer Drug Screen. Data for tumor model L1210 Leukemia (intraperitoneal) in B6D2F1 (BDF1) mice
TEST_CONDITIONS: endpoint: mean survival time; dose: 200.0 mg/kg/injection; schedule: Q04DX002 (ip); vehicle: Klucel (hydroxypropylcellulose) (HPC); higher = longer survival
Inconclusive results and toxic doses are left out.

**Query** Request - read-out T/C | tested on L1210 leukemia ip in BDF1 mice, survival T/C | compound `NC(=S)N/N=C/c1c(Cl)n(C(=O)c2ccc(Cl)cc2)c2ccccc12`
**Result** 91 % of control

**Query** Same for `O=C(COc1ccc(Br)cc1)Nc1ccc(Br)cc1`
**Result** 95 % of control

**Query** Same for `O=[N+]([O-])c1ccc2sc3ccccc3c2c1`
**Result** 97 % of control

**Query** Same for `COc1c(NC(=O)c2c(Br)c(Br)c(Br)c(Br)c2C(=O)O)cccc1[N+](=O)[O-]`
**Result** 102 % of control

**Query** Same for `CC(=O)OCCSc1ccc(C)cc1`
**Result** 103 % of control

**Query** Same for `O=C1CSCc2ccccc21`
**Result** 95 % of control

**Query** Same for `CC(=O)NC(C)(C)C#N`
**Result** 96 % of control

###

System: L1210 leukemia ip in BDF1 mice, survival T/C
METHOD: NCI In Vivo Anticancer Drug Screen. Data for tumor model L1210 Leukemia (intraperitoneal) in B6D2F1 (BDF1) mice
TEST_CONDITIONS: endpoint: mean survival time; dose: 200.0 mg/kg/injection; schedule: Q01DX009 (ip); vehicle: other; higher = longer survival
Toxic doses and inconclusive results are not listed.
MEASURE: T/C

**Query** Report T/C for `Cc1ccc(NC(=O)Oc2ccccc2F)cc1NC(=O)Oc1ccccc1F` please.
**Result** 90 % of control

**Query** Same for `COc1ccccc1NC(=O)OCc1ccco1`
**Result** 101 % of control

**Query** Same for `CCCCCCCCCCCCNC(=O)OCCN(CCOC(=O)NCCCCCCCCCCCC)C(=O)COc1ccc(Cl)cc1`
**Result** 92 % of control

**Query** Same for `CCCNC(=O)Oc1ccccc1C(=O)NCO`
**Result** 96 % of control

**Query** Same for `O=C1OCCN1/N=C\c1ccccc1`
**Result** 98 % of control

**Query** Same for `CCOC(CCc1c(-c2ccccc2)nc(N)[nH]c1=O)OCC`
**Result** 102 % of control
